system: HER2 S310F (Homo sapiens, UniProt P04626, S310F)
Construct: expressed in transfected cells; host or cells: BaF3 (murine pro-B)
Sequence (P04626 23-1255 S310F): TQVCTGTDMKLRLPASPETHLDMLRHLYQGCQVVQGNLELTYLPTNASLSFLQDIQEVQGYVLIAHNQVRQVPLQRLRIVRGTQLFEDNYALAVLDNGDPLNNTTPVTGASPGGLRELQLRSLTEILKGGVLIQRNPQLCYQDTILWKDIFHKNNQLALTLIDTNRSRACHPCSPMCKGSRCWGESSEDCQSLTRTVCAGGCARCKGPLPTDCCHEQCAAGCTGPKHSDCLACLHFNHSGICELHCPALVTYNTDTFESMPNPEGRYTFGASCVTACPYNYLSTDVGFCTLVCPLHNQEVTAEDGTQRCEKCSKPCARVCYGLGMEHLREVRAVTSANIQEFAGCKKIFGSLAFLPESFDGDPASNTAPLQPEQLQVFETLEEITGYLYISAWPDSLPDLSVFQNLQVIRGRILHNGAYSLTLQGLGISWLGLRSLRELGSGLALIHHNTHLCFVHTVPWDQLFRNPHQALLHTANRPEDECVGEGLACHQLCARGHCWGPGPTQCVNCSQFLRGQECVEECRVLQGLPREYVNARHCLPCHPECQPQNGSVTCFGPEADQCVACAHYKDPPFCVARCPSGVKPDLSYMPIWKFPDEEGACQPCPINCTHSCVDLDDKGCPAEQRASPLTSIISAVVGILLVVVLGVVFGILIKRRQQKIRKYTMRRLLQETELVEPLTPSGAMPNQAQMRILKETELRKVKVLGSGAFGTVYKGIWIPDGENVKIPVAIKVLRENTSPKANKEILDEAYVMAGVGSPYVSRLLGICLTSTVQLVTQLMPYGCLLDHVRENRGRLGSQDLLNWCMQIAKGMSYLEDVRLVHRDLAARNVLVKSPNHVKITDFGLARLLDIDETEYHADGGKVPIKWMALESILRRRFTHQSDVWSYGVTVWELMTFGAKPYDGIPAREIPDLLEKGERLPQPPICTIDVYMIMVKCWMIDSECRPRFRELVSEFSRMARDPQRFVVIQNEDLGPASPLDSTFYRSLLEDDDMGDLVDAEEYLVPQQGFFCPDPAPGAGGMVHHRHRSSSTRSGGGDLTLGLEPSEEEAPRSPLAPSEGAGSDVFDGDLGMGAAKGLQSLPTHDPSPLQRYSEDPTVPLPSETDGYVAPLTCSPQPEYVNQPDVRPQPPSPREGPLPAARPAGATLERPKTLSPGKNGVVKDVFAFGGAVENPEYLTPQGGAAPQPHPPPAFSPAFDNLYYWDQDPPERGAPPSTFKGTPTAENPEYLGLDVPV
assay method text: Activity for inhibiting HER2 (Table B), HER2 S310F
Type: cell-based
experimental conditions: read-out: HER2 S310F, potency code (IC50)
attribute measured: IC50

The following molecules have reported results that may help.
molecule | IC50
C=CC(=O)Nc1cc2c(Nc3ccc(OCc4cccc(F)c4)c(Cl)c3)ncnc2cc1OCCCN1C[C@@H]2C[C@H]1CO2 | 0.05 to 0.1 µM
C=CC(=O)Nc1cc2c(Nc3ccc(Oc4ccccc4)c(C)c3)ncnc2cc1C#C[C@@H]1[C@H]2CN(C)C[C@@H]12 | 0.05 to 0.1 µM
C=CC(=O)Nc1cc2c(Nc3ccc(OCc4ccccn4)c(Cl)c3)ncnc2cc1OCC1CCN1C (stereo not shown) | 0.03 to 0.05 µM

Qu. // Input: "C=CC(=O)Nc1cc2c(Nc3ccc(OCc4ccccn4)c(Cl)c3)ncnc2cc1C#CC(C)(C)N1CCN(C)CC1" . Output its IC50 only.
Ans. 0.01 to 0.02 µM

Qu. For the molecule "CC#CC(=O)Nc1cc2c(Nc3ccc(OCc4cccnn4)c(Cl)c3)ncnc2cc1OCCCN1CCOCC1" , report IC50.
Ans. 0.01 to 0.02 µM

Qu. Using the record for CC#CC(=O)Nc1cc2c(Nc3ccc(OCc4ccccn4)c(Cl)c3)ncnc2cc1C#CC1[C@H]2CN(C)C[C@@H]12 (stereo partly shown) , state its measured IC50.
Ans. 0.01 to 0.02 µM

Qu. Note IC50 for the molecule shown: C=CC(=O)Nc1cc2c(Nc3ccc(OCc4ccccn4)c(Cl)c3)ncnc2cc1N1CC2CCN(C)C2C1 (stereo not shown)
Ans. 0.1 to 0.2 µM
